Source: patent US9326984B2

Target: 5-HT2A receptors (Rattus norvegicus, UniProt P14842)
Construct: The assay tissue was rat cortex; from tissue; host or cells: rat cortex
Sequence (P14842 whole entry): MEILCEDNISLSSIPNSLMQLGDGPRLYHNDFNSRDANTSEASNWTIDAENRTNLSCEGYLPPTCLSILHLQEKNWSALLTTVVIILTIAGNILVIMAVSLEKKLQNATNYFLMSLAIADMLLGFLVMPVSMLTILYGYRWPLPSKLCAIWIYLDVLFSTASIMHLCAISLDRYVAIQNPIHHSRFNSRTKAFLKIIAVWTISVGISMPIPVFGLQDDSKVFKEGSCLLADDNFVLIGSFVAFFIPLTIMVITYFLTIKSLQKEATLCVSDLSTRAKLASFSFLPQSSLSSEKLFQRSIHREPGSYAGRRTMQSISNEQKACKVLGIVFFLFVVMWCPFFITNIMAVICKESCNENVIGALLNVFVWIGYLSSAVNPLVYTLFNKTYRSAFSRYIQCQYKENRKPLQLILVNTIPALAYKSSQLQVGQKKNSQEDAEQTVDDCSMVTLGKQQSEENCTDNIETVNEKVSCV
Experiment: In vitro affinity (radioligand binding inhibition) assay, 3[H]-ketanserin, rat cortex
Conditions: read-out: 5-HT2A Inhibition Percentage
As shown below, each of these compounds has a reported inhibition at 0.3 µM value.

| COMPOUND | ASSAY SYSTEM | inhibition at 0.3 µM |
| --- | --- | --- |
| COc1ccccc1N1CCN(CCn2cnc3ccccc3c2=O)CC1 [Example 6] | 5-HT2A receptors (Rattus norvegicus, UniProt P14842) | 43% |
| CCc1nc2ccccc2c(=O)n1CCN1CCN(c2cccc(C)c2C)CC1 [Example 8] | 5-HT2A receptors (Rattus norvegicus, UniProt P14842) | 67% |
| CCc1nc2ccccc2c(=O)n1CCN1CCN(c2ccccc2OC)CC1 [Example 9] | 5-HT2A receptors (Rattus norvegicus, UniProt P14842) | 13% |
| O=c1c2ccccc2ncn1CCN1CCN(c2ccccc2Cl)CC1 [Example 4] | 5-HT2A receptors (Rattus norvegicus, UniProt P14842) | 48% |
| Cc1cccc(N2CCN(CCn3cnc4ccccc4c3=O)CC2)c1C [Example 3] | 5-HT2A receptors (Rattus norvegicus, UniProt P14842) | 89% |
| Cc1ccccc1N1CCN(CCn2cnc3ccccc3c2=O)CC1 [Example 2] | 5-HT2A receptors (Rattus norvegicus, UniProt P14842) | 61% |
| N#Cc1ccccc1N1CCN(CCn2cnc3ccccc3c2=O)CC1 [Example 5] | 5-HT2A receptors (Rattus norvegicus, UniProt P14842) | 38% |
| CCc1nc2ccccc2c(=O)n1CCN1CCN(c2ccccc2Cl)CC1 [Example 11] | 5-HT2A receptors (Rattus norvegicus, UniProt P14842) | 25% |
| CCOc1ccccc1N1CCN(CCn2c(CC)nc3ccccc3c2=O)CC1 [Example 10] | 5-HT2A receptors (Rattus norvegicus, UniProt P14842) | 8% |

###

Target: 5-HT2A receptors (Rattus norvegicus, UniProt P14842)
Construct: The assay tissue was rat cortex; from tissue; host or cells: rat cortex
Assay: In vitro affinity (radioligand binding inhibition) assay, 3[H]-ketanserin, rat cortex
Settings: read-out: 5-HT2A Inhibition Percentage

| MOL | inhibition at 3 µM, % |
| --- | --- |
| CCc1nc2ccccc2c(=O)n1CCN1CCN(c2cccc(C)c2C)CC1 | 94 |
| CCc1nc2ccccc2c(=O)n1CCN1CCN(c2ccccc2Cl)CC1 | 79 |
| CCOc1ccccc1N1CCN(CCn2c(CC)nc3ccccc3c2=O)CC1 | 58 |
| CCc1nc2ccccc2c(=O)n1CCN1CCN(c2ccccc2OC)CC1 | 78 |

###

Molecular target: 5-HT1A receptors (Rattus norvegicus)
Construct: The assay tissue was rat hippocampus; from tissue; host or cells: rat hippocampus
Sequence (P19327 whole entry): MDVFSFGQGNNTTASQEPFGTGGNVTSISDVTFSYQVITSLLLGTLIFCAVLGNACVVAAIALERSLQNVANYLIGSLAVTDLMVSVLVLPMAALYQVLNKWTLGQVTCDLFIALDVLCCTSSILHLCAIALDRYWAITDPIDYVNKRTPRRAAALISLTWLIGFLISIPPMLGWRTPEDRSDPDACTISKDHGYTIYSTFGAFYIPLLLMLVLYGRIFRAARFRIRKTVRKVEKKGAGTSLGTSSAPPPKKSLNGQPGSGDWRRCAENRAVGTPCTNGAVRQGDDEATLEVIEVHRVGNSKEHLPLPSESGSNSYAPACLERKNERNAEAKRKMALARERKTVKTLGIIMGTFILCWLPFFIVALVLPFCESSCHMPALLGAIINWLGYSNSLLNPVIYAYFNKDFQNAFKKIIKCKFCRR
Assay: In vitro affinity (radioligand binding inhibition) assay, 3[H]-8-OH-DPAT, rat hippocampus
Settings: 3[H]-8-OH-DPAT 1 nM; rat hippocampus; 3-3000 nM in duplicate; read-out: 5-HT1A CI50

| COMPOUND | ASSAY SYSTEM | IC50, nM |
| --- | --- | --- |
| O=c1[nH]c2ccccc2n1CCN1CCN(c2cccc(C(F)(F)F)c2)CC1 [Comparative Compound, reference compound] | 5-HT1A receptors (Rattus norvegicus) | 47 |
| O=c1c2ccccc2ncn1CCN1CCN(c2cccc(C(F)(F)F)c2)CC1 | 5-HT1A receptors (Rattus norvegicus) | 47 |
| CCc1nc2ccccc2c(=O)n1CCN1CCN(c2cccc(C(F)(F)F)c2)CC1 | 5-HT1A receptors (Rattus norvegicus) | 253 |
